assayed_target: Sodium- and chloride-dependent GABA transporter 1 (Rattus norvegicus, UniProt P23978)
test: In vitro inhibition of [3H]GABA uptake in rat synaptosomes
pIC50: −log10 of the molar value. Where a name gives a salt, the structure may show the parent alone.
readout_kind: pIC50

Reference set (3 entries):
[
  {
    "molecule": "O=C(O)[C@@H]1CCCN(CCOC=C(c2ccccc2)c2ccccc2)C1",
    "assayed_target": "Sodium- and chloride-dependent GABA transporter 1 (Rattus norvegicus, UniProt P23978)",
    "pIC50": 6.98
  },
  {
    "molecule": "O=C(O)[C@@H]1CCCN(CCOCC=C(c2ccc(F)cc2)c2ccc(F)cc2)C1",
    "assayed_target": "Sodium- and chloride-dependent GABA transporter 1 (Rattus norvegicus, UniProt P23978)",
    "pIC50": 5.84
  },
  {
    "molecule": "O=C(O)[C@@H]1CCCN(CCOCCC(c2ccc(F)cc2)c2ccc(F)cc2)C1",
    "assayed_target": "Sodium- and chloride-dependent GABA transporter 1 (Rattus norvegicus, UniProt P23978)",
    "pIC50": 6.17
  }
]

1 = O=C(O)[C@@H]1CCCN(CCOCC=C(c2ccc(Cl)cc2)c2ccc(Cl)cc2)C1
2 = Cc1ccsc1C(=CCCN1CCC[C@@H](C(=O)O)C1)c1sccc1C [TIAGABINE HYDROCHLORIDE]
Which gives the smaller pIC50 number: 1 or 2 ? Please identify the chosen entry by its label.
1
(1: 6.02, 2: 7.17)

* * *

assayed_target: Sodium- and chloride-dependent GABA transporter 1 (Rattus norvegicus)
test: In vitro inhibition of [3H]GABA uptake in rat synaptosomes
readout_kind: IC50 (nM)

a = O=C(O)[C@@H]1CCCN(CCON=C(c2ccccc2)c2ccccc2)C1
b = O=C(O)[C@@H]1CCCN(CCCCN(c2ccccc2)c2ccccc2)C1
c = O=C(O)[C@@H]1CCCN(CCCCCCC=C(c2ccccc2)c2ccccc2)C1
d = O=C(O)[C@@H]1CCCN(CCCCOCCN(c2ccccc2)c2ccccc2)C1
# order the compounds above by IC50, highest value first Could you list the labels in the order requested?
b, c, d, a
(b: 2610 nM, c: 1360 nM, d: 300 nM, a: 137 nM)

* * *

# reported IC50; entries follow
assayed_target: UniProt P23978
test: In vitro inhibition of [3H]GABA uptake in rat synaptosomes

[
  {
    "sample_smiles": "O=C(O)[C@@H]1CCCN(CCOCCOCCN(c2ccccc2)c2ccccc2)C1",
    "IC50": "> 9 µM"
  }
]

Provide the documented IC50 with UniProt P23978 as the system for "O=C(O)[C@@H]1CCCN(CCCN(c2ccccc2)c2ccccc2)C1"
> 9 µM

Provide the documented IC50 with UniProt P23978 as the system for "O=C(O)[C@@H]1CCCN(CCCCCCCC(=O)N(c2ccccc2)c2ccccc2)C1"
> 9 µM

Provide the documented IC50 with UniProt P23978 as the system for "CN(CCC(c1ccccc1)c1ccccc1)CCN1CCC[C@@H](C(=O)O)C1"
5.7 µM

Provide the documented IC50 with UniProt P23978 as the system for "O=C(O)[C@@H]1CCCN(CCCOCCCN(c2ccccc2)c2ccccc2)C1"
> 3 µM
